Test system: SK-BR-3
TEST_SUMMARY: Antiproliferative activity against human SKBR3 cells
Format: functional, cell-based
MEASUREMENT_TYPE: IC50 (µM)
Number only, in µM; omit the unit.

Fill in the blank: the reported IC50 of Cc1c(OC2CCN(C)CC2)ccc2cc(NC(=O)c3ccccc3)c(=O)oc12 is ____.
11.5

Could you share which IC50 value was measured for CC(C)=CCc1cc(C(=O)Nc2cc3ccc(OC4CCN(C)CC4)c(C)c3oc2=O)ccc1OC1CCN(C)CC1 ?
0.21

Return reported IC50; argument: Cc1c(OC2CCN(C)CC2)ccc2cc(NC(=O)c3ccc(O)c(Cl)c3)c(=O)oc12
2.3

I have this compound here, CC(=O)Oc1ccc(C(=O)Nc2cc3ccc(OC4CCN(C)CC4)c(C)c3oc2=O)cc1 , and I need its recorded IC50.
1.67

Please give the measured IC50 for this compound: CC(C)=CCc1cccc(C(=O)Nc2cc3ccc(OC4CCN(C)CC4)c(C)c3oc2=O)c1
1.68

Requested read-out: IC50. Entry: C#CCOc1ccc(C(=O)Nc2cc3ccc(OC4CCN(C)CC4)c(C)c3oc2=O)cc1CC=C(C)C
1.4

I'd like to know its IC50. The compound in question is Cc1c(OC2CCN(C)CC2)ccc2cc(NC(=O)c3ccc(O)c(CCC(C)C)c3)c(=O)oc12
0.6

Would you mind telling me what IC50 value was observed for COc1ccc(C(=O)Nc2cc3ccc(OC4CCN(C)CC4)c(C)c3oc2=O)cc1-c1cccc(OC(C)=O)c1 ?
0.29

Given the entry Cc1c(OC2CCN(C)CC2)ccc2cc(NC(=O)c3ccc(O)cc3)c(=O)oc12 , report its measured IC50.
0.84

Suppose we examine the compound CC(C)=CCc1cc(C(=O)Nc2cc3ccc(OC4CCN(C)CC4)c(C)c3oc2=O)ccc1OCCCN(C)C ; what IC50 value has been reported?
0.25

What measured IC50 goes with CC(C)=CCc1cc(C(=O)Nc2cc3ccc(OC4CCN(C)CC4)c(C)c3oc2=O)ccc1OCCN(C)C ?
0.33

What does the record list as IC50 for COc1ccc(C(=O)Nc2cc3ccc(OC4CCN(C)CC4)c(C)c3oc2=O)cc1CC=C(C)C ?
1.41

I'd like to know its IC50. The compound in question is CCCCOc1ccc(C(=O)Nc2cc3ccc(OC4CCN(C)CC4)c(C)c3oc2=O)cc1CC=C(C)C
1.4

For the compound shown here, COc1cccc(-c2cc(C(=O)Nc3cc4ccc(OC5CCN(C)CC5)c(C)c4oc3=O)ccc2OC(C)=O)c1 , give the reported IC50.
0.92

// lookup IC50 for CC(=O)Oc1ccc(C(=O)Nc2cc3ccc(OC4CCN(C)CC4)c(C)c3oc2=O)cc1Cl
3.5

For the compound COc1ccc(C(=O)Nc2cc3ccc(OC4CCN(C)CC4)c(C)c3oc2=O)cc1-c1cccc(O)c1 , what IC50 is on record?
0.31

What value of IC50 has been reported for the following compound? C=CCc1cc(C(=O)Nc2cc3ccc(OC4CCN(C)CC4)c(C)c3oc2=O)ccc1OC(C)=O
2.26

Look at this compound and give its reported IC50. COc1cccc(-c2cc(C(=O)Nc3cc4ccc(OC5CCN(C)CC5)c(C)c4oc3=O)ccc2O)c1
0.86

Give its IC50 value. Item: Cc1c(OC2CCN(C)CC2)ccc2cc(NC(=O)c3ccc4c(c3)CCC(C)(C)O4)c(=O)oc12
3.46

Which measured IC50 value corresponds to C=CCc1cc(C(=O)Nc2cc3ccc(OC4CCN(C)CC4)c(C)c3oc2=O)ccc1O ?
2.43
